Known melting point of a selection of compounds

Completed entries (count: 6):
>>> result("CC(C)CC(=O)NCc1cccc(Cn2nnc3c(-c4ccco4)nc(N)nc32)c1 [Example 85]")
"215.9 to 217.5 °C"
>>> result("Nc1nc(-c2ccco2)c2nnn(Cc3ccc4[nH]ccc4c3)c2n1 [Example 153]")
"226.8 to 227.4 °C"
>>> result("COc1ccccc1Cn1nnc2c(-c3ccc(C)o3)nc(N)nc21 [Example 72]")
"195.4 to 196.5 °C"
>>> result("CC(C)(C)OC(=O)n1ccc2c(Cn3nnc4c(-c5ccco5)nc(N)nc43)cccc21 [Example 138]")
"58.5 to 62.6 °C"
>>> result("Nc1nc(-c2ccco2)c2nnn(CC(=O)NCc3ccccn3)c2n1 [Example 53]")
"256.1 to 256.4 °C"
>>> result("Cc1csc(-c2nc(N)nc3c2nnn3Cc2cccc([N+](=O)[O-])c2)n1 [Example 109]")
"289.8 to 289.9 °C"

Input line: Look at this compound and give its reported melting point. Nc1nc(-c2ccco2)c2nnn(Cc3ccc(F)c([N+](=O)[O-])c3)c2n1 [Example 129]
Output line: 266.5 to 266.7 °C

Input line: Look at this compound and give its reported melting point. N#CCc1cccc(Cn2nnc3c(-c4ccco4)nc(N)nc32)n1 [Example 220]
Output line: 223.3 to 223.4 °C

Input line: Look at this compound and give its reported melting point. Nc1nc(-c2ccco2)c2nnn(Cc3ccc4nn[nH]c4c3)c2n1 [Example 158]
Output line: > 300 °C (dec.)

Input line: Look at this compound and give its reported melting point. Nc1cccc(Cn2nnc3c(-c4ccco4)nc(N)nc32)c1 [Example 5]
Output line: 259.8 to 259.9 °C

Input line: Look at this compound and give its reported melting point. COc1cc([N+](=O)[O-])ccc1Cn1nnc2c(-c3ccco3)nc(N)nc21 [Example 159]
Output line: 235.9 to 237.8 °C

Input line: Look at this compound and give its reported melting point. C=Cc1cccc(Cn2nnc3c(-c4ccco4)nc(N)nc32)n1 [Example 202]
Output line: 210.5 to 211.6 °C

Input line: Look at this compound and give its reported melting point. CN(C)c1cccc(Cn2nnc3c(-c4ccco4)nc(N)nc32)c1 [Example 162]
Output line: 195.1 to 195.2 °C

Input line: Look at this compound and give its reported melting point. Cc1cc(Cn2nnc3c(-c4ccco4)nc(N)nc32)c2[nH]ccc2c1 [Example 243]
Output line: > 300 °C (dec.)

Input line: Look at this compound and give its reported melting point. CC(=O)NCc1cccc(Cn2nnc3c(-c4ccco4)nc(N)nc32)c1 [Example 68]
Output line: 228.1 to 229.3 °C

Input line: Look at this compound and give its reported melting point. CCOc1cccc(Cn2nnc3c(-c4ccc(C)o4)nc(N)nc32)n1 [Example 254]
Output line: 190.8 to 190.9 °C

Input line: Look at this compound and give its reported melting point. Cc1cnc(-c2nc(N)nc3c2nnn3Cc2ccccc2F)s1 [Example 38]
Output line: 242 to 242.1 °C

Input line: Look at this compound and give its reported melting point. COCCc1cccc(Cn2nnc3c(-c4ccco4)nc(N)nc32)n1 [Example 264]
Output line: 162 to 162.6 °C

Input line: Look at this compound and give its reported melting point. COc1cccc(Cn2nnc3c(-c4ccco4)nc(N)nc32)n1 [Example 32]
Output line: 191.4 to 192 °C

Hello, the source for this data is patent US7589097B2, in case you need it.
